Target: T1, ZIKV prM/E polyprotein on virus-like particles (VLPs) from HEK293T/17 cells (Zika virus, UniProt A0A024B7W1 123-795)
T1 construct: also called ZIKV prM/E VLPs; Zika prM/E VLPs
Assay: MSD ECL, VLPs on plate
pEC50: −log10 of the molar value.
In this section, each of the binders is paired with its reported pEC50.
PROPERTY MEASURED: pEC50

BINDER	PROPERTY MEASURED	EXPERIMENTAL VALUE
H4H25619P (antibody, V domains shown) VH: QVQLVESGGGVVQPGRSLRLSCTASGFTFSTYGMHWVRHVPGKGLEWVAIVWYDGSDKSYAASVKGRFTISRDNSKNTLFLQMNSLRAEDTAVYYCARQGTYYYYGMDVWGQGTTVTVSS VL: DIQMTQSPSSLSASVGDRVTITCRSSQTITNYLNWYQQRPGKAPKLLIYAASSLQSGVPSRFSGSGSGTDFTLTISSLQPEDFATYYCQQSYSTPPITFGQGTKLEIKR	pEC50	8.72
H4H25637P (antibody, V domains shown) VH: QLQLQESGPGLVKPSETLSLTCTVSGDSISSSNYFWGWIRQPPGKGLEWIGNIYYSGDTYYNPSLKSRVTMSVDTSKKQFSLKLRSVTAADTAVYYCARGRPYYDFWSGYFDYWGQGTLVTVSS VL: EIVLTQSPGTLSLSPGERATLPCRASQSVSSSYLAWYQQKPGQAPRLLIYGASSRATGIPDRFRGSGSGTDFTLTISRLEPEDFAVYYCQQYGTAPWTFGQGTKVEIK	pEC50	9.49
